- tested-on: Rac GTPase-activating protein 1 (Homo sapiens) (UniProt Q9H0H5)
- Sequence (Q9H0H5 whole entry, looked up): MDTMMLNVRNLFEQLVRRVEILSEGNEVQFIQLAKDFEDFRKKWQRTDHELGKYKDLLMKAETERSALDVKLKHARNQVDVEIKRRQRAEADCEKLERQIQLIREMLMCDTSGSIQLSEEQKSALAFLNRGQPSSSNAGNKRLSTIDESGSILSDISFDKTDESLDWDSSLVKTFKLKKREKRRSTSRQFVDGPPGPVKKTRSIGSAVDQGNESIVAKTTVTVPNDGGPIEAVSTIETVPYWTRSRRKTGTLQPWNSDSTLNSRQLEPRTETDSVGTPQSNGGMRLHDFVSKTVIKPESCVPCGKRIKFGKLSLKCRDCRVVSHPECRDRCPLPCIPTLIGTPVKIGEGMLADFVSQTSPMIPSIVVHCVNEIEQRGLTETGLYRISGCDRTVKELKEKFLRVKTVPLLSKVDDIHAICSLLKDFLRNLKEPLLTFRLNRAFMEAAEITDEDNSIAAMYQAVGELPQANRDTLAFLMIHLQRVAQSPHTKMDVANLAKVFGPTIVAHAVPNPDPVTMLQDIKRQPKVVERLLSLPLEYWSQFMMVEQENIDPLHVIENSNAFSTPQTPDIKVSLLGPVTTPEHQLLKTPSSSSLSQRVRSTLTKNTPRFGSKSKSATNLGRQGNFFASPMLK
- method-description: blockers of MgcRacGAP-driven Rac1 GTP hydrolysis – biochemical, ADP Hunter fluorescence, primary and confirmatory, confirmation (AID 624330);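 further: fluorescence reports GDP produced by GAP-driven GTP hydrolysis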
- study-conditions: MgcRacGAP-stimulated Rac1 GTP hydrolysis, at 30 µM, hits give high values, GST-tagged Rac1 F28L mutant substrate
Among all 340,000 compounds or so, about 2,100 (0.62%) were called active. A selection follows. Potency and affinity values are given separately.
Catalogue of inhibition readings, one per entry.
Number only, in %; omit the unit.

Test item ON=C1c2ccccc2-c2ccc(Br)cc21 ; Rac GTPase-activating protein 1 (Homo sapiens) (UniProt Q9H0H5); reported inhibition was 0.43

Next:
Test item COc1ccc(CNC(=O)C[C@H]2C[C@H](C(=O)N3CCOCC3)[C@@]3(C)c4[nH]c5cc(-c6ccco6)ccc5c4CCN3C2=O)cc1OC ; Rac GTPase-activating protein 1 (Homo sapiens) (UniProt Q9H0H5); reported inhibition was 15.1

Test item CCCOP(=O)(c1ccc(N(C)C)cc1)C(O)c1ccccc1OC (stereo not given) ; Rac GTPase-activating protein 1 (Homo sapiens) (UniProt Q9H0H5); reported inhibition was 4.57

Test item O=C(O)c1ccc(/C=N/Nc2ccc(C(F)(F)F)cn2)cc1 ; Rac GTPase-activating protein 1 (Homo sapiens) (UniProt Q9H0H5); reported inhibition was 13.8

---

- tested-on: Rac GTPase-activating protein 1 (Homo sapiens)
- method-description: blockers of MgcRacGAP-driven Rac1 GTP hydrolysis – biochemical, ADP Hunter fluorescence, primary and confirmatory, confirmation (AID 624330);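 further: fluorescence reports GDP produced by GAP-driven GTP hydrolysis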
- study-conditions: MgcRacGAP-stimulated Rac1 GTP hydrolysis, at 30 µM, hits give high values, GST-tagged Rac1 F28L mutant substrate
About 2,100 (0.62%) of roughly 340,000 compounds were called active. These entries were drawn from the full list. Potency and affinity values are given separately.
Label rule, in plain words: inhibition of 20% and up is Met, under 20% is Not met.

Here are 5 compounds together with their reported answers.
In plain terms: is recorded inhibition at least 20% for Cc1ccc(NCCCn2cnc3c(OCc4ccccc4)ncnc32)cc1C ? Met

In plain terms: is recorded inhibition at least 20% for c1ccc(-c2ccccc2OCCOCCN2CCCCC2)cc1 ? Not met

In plain terms: is recorded inhibition at least 20% for C[C@@H]1CN([C@@H](C)CO)C(=O)CCCn2nncc2CO[C@H]1CN(C)C(=O)OCc1ccccc1 ? Not met

In plain terms: is recorded inhibition at least 20% for OCCN1CCN(CCOc2ccccc2-c2ccccc2)CC1 ? Not met

In plain terms: is recorded inhibition at least 20% for CCN1CCN(CCOc2ccccc2-c2ccccc2)CC1 ? Not met

Next:
In plain terms: is recorded inhibition at least 20% for CCOC(=O)N1CCN(CC(c2ccccc2)c2ccccc2)CC1 ? Met

In plain terms: is recorded inhibition at least 20% for OCCCN1CCN(CCCOc2ccccc2-c2ccccc2)CC1 ? Not met

In plain terms: is recorded inhibition at least 20% for CCOc1ccccc1OCCOCCN1CC(C)OC(C)C1 (configuration not stated) ? Not met

In plain terms: is recorded inhibition at least 20% for c1ccc(-c2ccccc2OCCCN2CCOCC2)cc1 ? Met

In plain terms: is recorded inhibition at least 20% for CC1CN(CCOc2ccccc2-c2ccccc2)CC(C)O1 (configuration not stated) ? Not met

In plain terms: is recorded inhibition at least 20% for CSc1ncnc2c1ncn2CCCNCCCc1ccccc1 ? Not met
